Assay: Induction of hemolysis in human RBC assessed as hemoglobin release after 1 hr by microtiter plate reader analysis
Type: cell-based, Erythrocyte
Conditions: erythrocyte, 1 h
Where a SMILES comes first, the peptide text is derived from it. [ ]: non-standard residue; d: D form. 3Abz = Nc1cccc(C(=O)O)c1; Orn = NCCC[CH](N)C(=O)O

compound	HC10 [µg/mL]
NCCCC(NC(=O)C(Cc1c[nH]c2ccccc12)NC(=O)C(Cc1c[nH]c2ccccc12)NC(=O)C(CCCN)NC(=O)C(N)Cc1c[nH]c2ccccc12)C(N)=O (stereo not given) (H-W[Orn]WW[Orn]-NH2; configuration not given here)	65
N=C(N)NCCCC(NC(=O)c1cccc(NC(=O)C(N)Cc2c[nH]c3ccccc23)c1)C(N)=O (stereo not given)	400
NCCCC(N)C(=O)NC(CCCN)C(=O)NC(Cc1ccccc1)C(=O)Nc1cccc(C(=O)NC(Cc2ccccc2)C(=O)NC(CCCN)C(N)=O)c1 (stereo not given) (H-[Orn][Orn]F[3Abz]F[Orn]-NH2; configuration not given here)	210
N=C(N)NCCCC(NC(=O)C(Cc1c[nH]c2ccccc12)NC(=O)c1cccc(NC(=O)C(Cc2c[nH]c3ccccc23)NC(=O)C(CCCNC(=N)N)NC(=O)C(N)Cc2c[nH]c3ccccc23)c1)C(N)=O (stereo not given) (H-WRW[3Abz]WR-NH2; configuration not given here)	80
NCCCC(NC(=O)C(CCCN)NC(=O)c1cccc(NC(=O)C(Cc2c[nH]c3ccccc23)NC(=O)C(CCCN)NC(=O)C(N)Cc2c[nH]c3ccccc23)c1)C(N)=O (stereo not given) (H-W[Orn]W[3Abz][Orn][Orn]-NH2; configuration not given here)	175
